Target: recombinant human SIRPα variant 1 protein (human) (UniProt P78324)
Sequence (P78324 31-370, change not shown): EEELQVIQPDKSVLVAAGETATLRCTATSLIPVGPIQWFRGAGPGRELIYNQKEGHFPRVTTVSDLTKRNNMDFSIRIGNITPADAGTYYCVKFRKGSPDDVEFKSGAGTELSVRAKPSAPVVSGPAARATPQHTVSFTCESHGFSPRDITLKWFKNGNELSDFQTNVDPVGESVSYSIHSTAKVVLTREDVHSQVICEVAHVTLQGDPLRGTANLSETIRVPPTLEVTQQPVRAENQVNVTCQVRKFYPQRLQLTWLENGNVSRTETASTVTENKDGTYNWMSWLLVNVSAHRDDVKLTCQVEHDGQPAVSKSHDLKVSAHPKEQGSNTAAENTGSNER
Assay: SPR Biacore 8K, antibody captured, antigen analyte
Below, each of the binders is paired with its reported Kd value.
Write it as a number; the unit nM goes unstated.

Study these solved cases before continuing.
// query # get_value(readout='Kd', item= HSP210-03-hz51 (antibody, V domains shown) VH: QVQLVQSGAEVKKPGSSVKVSCKASGYTFTSNYIHWVRQAPGQGLEWMGWIYPGDADTNYNQKFNGRVTLTADKSTSTAYMELSSLRSEDTAVYYCAINYGGIWFAYWGQGTLVTVSS VL: DIQMTQSPSSLSASVGDRVTITCQASQDIGNKLIWYQQKPGKAPKLLIYYVTNLPGGVPSRFSGSGSGTDFTLTISSLQPEDFATYYCLQYKQNPLTFGQGTKLEIK )
// result 0.999

// query Now give it for 300A6A6 (antibody, V domains shown) VH: QVQLQQSGTELVKPGSSVKISCKASGYTFTSNYIHWIRQQPGNGLEWIGWIYPGDGDTNYNQKFNGKATLTADKSSSTAYMQLSSLTSEDYAVYFCAINYGGIWFAYWGQGTLVTVSS VL: DIQMTQSPSSMSASLGDRVTITCQASQDIGNKLIWFQQKPGKSPRLMIHYVTNLPGGVPLRFSGSRSGSDYSLTISSLESEDMADYYCLQYKQNPLTFGSGTKLEIK too.
// result 1.13

// query Try the binder 248G3F6 (antibody, V domains shown) VH: EVQLQQSGAELVKPGASVKLSCTASGFNFEDTYMHWVKQRPDQGLEWIGRIDPADGDTKYNPKFQDKATITVDTSSNTAYLQLSSLTSEDTAVYYCVRGNYVNWGQGTTLTVSS VL: QIVLIQSPAIMSASPGERVTLTCRASSSVSSSYLYWYQQKPGSSPKLWIYSTSNLASGVPARFSGSGSGTSYSLTISSMEAEDAASYFCHQWYSYPRTFGGGTKLEIK
// result 2

We now examine a further binder.
// query Query: Kd; subject: HSP210-02-hz52 (antibody, V domains shown) VH: QVQLVQSGAEVKKPGASVKVSCKASGFNFEDTYMHWVRQAPGQGLEWMGRIDPADADTKYNPKFQDRVTITVDTSTNTAYMELSSLRSEDTAVYYCVRGNYVNWGQGTTVTVSS VL: EIVLTQSPGTLSLSPGERATLSCRASSSVSSSYLYWYQQKPGQAPRLLIYSTSNLASGIPDRFSGSGSGTDYTLTISRLEPEDAAVYFCHQWYSYPRTFGGGTKVEIK
// result 0.423
